target: κ opioid receptor (Cavia porcellus, UniProt P41144)
Sequence (P41144 whole entry): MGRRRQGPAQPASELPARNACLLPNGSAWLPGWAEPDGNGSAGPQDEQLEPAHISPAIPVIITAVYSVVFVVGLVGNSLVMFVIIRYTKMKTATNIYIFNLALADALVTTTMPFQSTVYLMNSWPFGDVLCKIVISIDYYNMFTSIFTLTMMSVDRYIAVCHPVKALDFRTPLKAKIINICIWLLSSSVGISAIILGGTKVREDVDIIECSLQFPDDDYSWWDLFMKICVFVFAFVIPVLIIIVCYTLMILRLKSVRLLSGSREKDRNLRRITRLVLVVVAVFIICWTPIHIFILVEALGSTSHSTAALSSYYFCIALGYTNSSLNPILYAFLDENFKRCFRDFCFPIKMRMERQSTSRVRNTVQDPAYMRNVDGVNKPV
reported endpoint: pKi
One number for each entry, as −log10 of the molar value.

Value wanted: pKi (κ opioid receptor (Cavia porcellus, UniProt P41144)) of entry `CCN(CC)C(=O)c1ccc([C@H](c2cccc(O)c2)N2C[C@@H](C)N(Cc3ccc(C(=O)O)cc3)C[C@@H]2C)cc1`
4.76
